# target-system: Gal(b1-3)[Fuc(a1-4)]GlcNAc(b1-2)Man(a1-3)[Gal(b1-3)[Fuc(a1-4)]GlcNAc(b1-2)Man(a1-6)]Man(b1-4)GlcNAc(b1-4)GlcNAc
# test-details: glycan array binding signal (z-score within array); higher = stronger binding
# condition-set: glycan notation: IUPAC condensed, linker removed
Shown is part of a subset that was picked to be rich in the strongest signals.
reported-property: glycan array binding signal (z-score)

Examples with answers:
binder: CLEC5A (Homo sapiens), Q9NY25 (protein) MNWHMIISGLIVVVLKVVGMTLFLLYFPQIFNKSNDGFTTTRSYGTVSQIFGSSSPSPNGFITTRSYGTVCPKDWEFYQARCFFLSTSESSWNESRDFCKGKGSTLAIVNTPEKLKFLQDITDAEKYFIGLIYHREEKRWRWINNSVFNGNVTNQNQNFNCATIGLTKTFDAASCDISYRRICEKNAK
glycan array binding signal (z-score): 1.69

binder: Eosinophil cationic protein (ECP) (Homo sapiens), P12724 (protein) MVPKLFTSQICLLLLLGLMGVEGSLHARPPQFTRAQWFAIQHISLNPPRCTIAMRAINNYRWRCKNQNTFLRTTFANVVNVCGNQSIRCPHNRTLNNCHRSRFRVPLLHCDLINPGAQNISNCTYADRPGRRFYVVACDNRDPRDSPRYPVVPVHLDTTI
glycan array binding signal (z-score): 0.007

API: the following record is the query input.
Q. Which value of glycan array binding signal (z-score) has been reported for Gal 7 (Canis lupus) (protein) MAGSSNVPHKTSLPEGIRVGTVMRIRGVVPNKAGRFYVNLLCGEAPGSEAALHFNPRLDESTVVFNTLEQGAWGREERGTGIPFQRGQPFDVLLIATDEGFKAVVGDSEYHHFRYRIPPARVRLLEVGGDLQLESVSVF in the records?
A. -0.166
